MEASURED_ON: T1, human C-reactive protein (human, UniProt P02741 19-224)
T1 construct: Biotinylated or labelled with Alexa Fluor 488; also called CRP; C-RP
T1 sequence (looked up): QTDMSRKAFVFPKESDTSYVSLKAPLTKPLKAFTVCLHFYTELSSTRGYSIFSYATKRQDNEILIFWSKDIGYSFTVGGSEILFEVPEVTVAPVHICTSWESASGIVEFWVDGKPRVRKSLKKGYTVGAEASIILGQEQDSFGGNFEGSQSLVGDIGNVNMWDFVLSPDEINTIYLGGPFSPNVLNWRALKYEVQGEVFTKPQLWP
ASSAY_COMMENT: apparent whole-cell KD, flow cytometry with CRP-Alexa Fluor 488
Description: To obtain equilibrium binding curves, cells were labeled over a range of concentrations, e.g., about 0.1 to about 200 nM, of fluorescently conjugated target proteins (streptavidin-phycoerythrin or CRP-Alexa Fluor® 488) and analyzed by flow cytometry, as above. The corresponding mean fluorescence versus concentration data were fit to a monovalent binding isotherm to obtain the apparent KD. […] The cells were then pelleted, resuspended in PBS with biotin, and immediately analyzed by flow cytometry. […]
pKd: −log10 of the molar value. No end group written: not given here.
PROPERTY_NAME: pKd

BINDER	REPORTED_MEASUREMENT
MIFNSRGFLSLMSSG (Insert only) [CRP-6]	8.10
YPPRFQYYRFYYRGP (Insert only) [CRP-10]	8.30
EWACNDRGFNCQLQR (not fully specified (bridges); cysteine pairing not given here, Insert only; said to be a cyclic peptide (two cysteines)) [CRP-1]	9.00
FPIYNQRGFITLASP (Insert only) [CRP-2]	8.52
